STUDY_SYSTEM: T1, CD123 (Homo sapiens (Human), UniProt P26951 19-305, limits assumed)
T1 construct: The CD123 construct used in the ELISA is not described; also called CD123-Signal
T1 sequence: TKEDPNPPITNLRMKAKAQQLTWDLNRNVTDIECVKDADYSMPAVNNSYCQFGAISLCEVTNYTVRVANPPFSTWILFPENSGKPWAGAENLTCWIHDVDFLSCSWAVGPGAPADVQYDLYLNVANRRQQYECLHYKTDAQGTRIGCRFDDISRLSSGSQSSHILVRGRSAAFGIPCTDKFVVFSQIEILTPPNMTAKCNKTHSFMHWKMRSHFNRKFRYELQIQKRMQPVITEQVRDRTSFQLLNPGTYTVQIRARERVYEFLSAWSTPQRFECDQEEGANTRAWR
ASSAY_NOTES: ELISA
Parameters: unit not given here
VALUE_TYPE: ELISA_avg
Answer with a number only.

D domain of SEQ ID NO: 580 (designed binder) MGSWVEFDDRLDAIWERLDALGGSEAELAWFEEQIAVFEHQLQDYKGKGNPEVEALNQEAEAIDLELKAYRHN: 5

### Prompt So what's the measured ELISA_avg for this one? D domain of SEQ ID NO: 481 (designed binder) MGSWTFFKNDLAEIKDWLEALGGSEAELADFEWDIAEFEYSLQEYKGKGNPEVEALRKEAAAIRDELQAYRHN
### Response 3.9

### Prompt So what's the measured ELISA_avg for this one? D domain of SEQ ID NO: 453 (designed binder) MGSWVEFNWRLDAIYDRLVALGGSEAELAAFEKEIAAFESELQAYKGKGNPEVEWLRVSAAKIRGELQAYRHN
### Response 9.3

### Prompt So what's the measured ELISA_avg for this one? D domain of SEQ ID NO: 520 (designed binder) MGSWMEFKEELAEIKYILEALGGSEAELAWFEQSIADFEYDLQDYKGKGNPEVEALRKEAAAIRDELQAYRHN
### Response 5

### Prompt So what's the measured ELISA_avg for this one? D domain of SEQ ID NO: 496 (designed binder) MGSWETFKYELAEIKDYLEALGGSEAELAWFEDDIAEFEFELQYYKGKGNPEVEALRKEAAAIRDELQAYRHN
### Response 4.4
